All values here come from BindingDB's records for doi:10.1016/j.bmcl.2012.03.007.

- METHOD: Antagonist activity at CCR2 in human PBMC assessed as inhibition of MCP1-induced chemotaxis
pIC50: −log10 of the molar value.
Overview of reported pIC50 across a group of molecules:
EXPERIMENTAL_READOUT: pIC50

[[record]]
mol = "CCC[C@H](O)[C@H](CNCc1ccc(C)cc1C)NC(=O)CC(=O)Nc1cc(NCC)cc(C(F)(F)F)c1"
reading = 7.92

[[record]]
mol = "CCC[C@H](O)[C@H](CNCc1ccc(C)cc1C)NC(=O)CNC(=O)c1cc(N)cc(C(F)(F)F)c1"
reading = 7.70

[[record]]
mol = "CCC[C@H](O)[C@H](CNCc1ccc(C)cc1C)NC(=O)CNc1n[nH]c2ccc(C(F)(F)F)cc12"
reading = 7.13

[[record]]
mol = "CCC[C@H](O)[C@H](CNCc1ccc(C)cc1C)NC(=O)CNC(=O)c1cc(C(F)(F)F)ccc1NC(=O)NCC"
reading = 7.62

